assay: Cell viability in the inoculation/replication (I, R, I/R) procedure; type: cell-based, human; conditions: human; I, R, I/R incubation conditions

Compound	CC50
COC(=O)c1c(C)cc(OC(=O)c2c(C)cc(O)c(CO)c2O)c(C)c1O [Compound 5, Methyl-8-hydroxy-4-O-demethylbarbatate]	~100 µM

----------
test system: Huh-7.5.1 cells; experiment: in vitro; format: cell-based, human; settings: half-maximal cytotoxicity concentration, Huh-7.5.1 cells, 48 h; mean ± SEM; maximum dose tested 100 μM

Molecule	Unit Name	CC50
COC(=O)c1c(C)cc(OC(=O)c2c(C)cc(O)c(CO)c2O)c(C)c1O [Compound 5, Methyl-8-hydroxy-4-O-demethylbarbatate]	µM	106
COC(=O)c1c(C)cc(OC(=O)c2c(C)cc(O)cc2O)c(C)c1O [Compound 3, methyl-3’-methyllecanorate]	µM	81.9

----------
assay: in vitro; format: cell-based, human; settings: human; 5 μM (controls); percentage of vehicle control; mean ± SEM, n = 3

Compound	viability at 48 h, 5 µM, %
CCC[C@H](NC(=O)[C@@H]1[C@H]2CCC[C@H]2CN1C(=O)[C@@H](NC(=O)[C@@H](NC(=O)c1cnccn1)C1CCCCC1)C(C)(C)C)C(=O)C(=O)NC1CC1 [Telaprevir, telaprevir, reference compound]	102

----------
experiment: in vitro; type: cell-based, human; details: human; 50 μM; percentage of vehicle (0.1% DMSO) control; mean ± SEM, n = 3

Compound	viability at 48 h, 50 µM (%)
COC(=O)c1c(C)cc(OC(=O)c2c(C)cc(O)cc2O)c(C)c1O [Compound 3, methyl-3’-methyllecanorate]	52.7
COC(=O)c1c(C)cc(OC(=O)c2c(C)cc(O)c(C(=O)O)c2O)c(C)c1O [Compound 4, cladonioidesin]	104
COC(=O)c1c(C)cc(O)c(C=O)c1O [Compound 10, methyl haematommate]	88.1
COC(=O)c1c(C)cc(OC(=O)c2c(C)cc(O)c(/C=C/C(C)=O)c2O)c(C)c1O [Compound 2]	110
COC(=O)c1c(C)cc(O)c(C)c1O [Compound 7]	101
COC(=O)c1c(C)cc(OC(=O)c2c(C)cc(O)c(C)c2O)c(C)c1O [Compound 6, Methyl-4-O-demethylbarbatate]	145
Cc1cc(O)c(C=O)c(O)c1 [Compound 9, atranol]	91.1
COC(=O)c1c(C)cc(OC(=O)c2c(C)cc(O)c(C=O)c2O)c(C)c1O [Compound 1, atranorin]	95.9
COC(=O)c1c(C)cc(O)cc1O [Compound 8, methyl orsellinate]	106
COC(=O)c1c(C)cc(OC(=O)c2c(C)cc(O)c(CO)c2O)c(C)c1O [Compound 5, Methyl-8-hydroxy-4-O-demethylbarbatate]	88.4

----------
test system: HCVcc; assay: Anti-HCV activity: HCVcc expressing Renilla luciferase in Huh-7.5.1 cells, luciferase readout; assay type: cell-based, hepatitis C virus; settings: Hepatitis C virus; Huh-7.5.1 cells infected with HCVcc, 1 h preincubation then 48 h with virus; mean ± SEM, three experiments
Response field class: enum, chosen by comparing IC50 against interval 1 = under 10 µM, interval 2 = from 10 µM up to 40 µM, interval 3 = 40 µM and over

Compound	Label Value
COC(=O)c1c(C)cc(OC(=O)c2c(C)cc(O)c(C(=O)O)c2O)c(C)c1O [Compound 4, cladonioidesin]	interval 3
CCC[C@H](NC(=O)[C@@H]1[C@H]2CCC[C@H]2CN1C(=O)[C@@H](NC(=O)[C@@H](NC(=O)c1cnccn1)C1CCCCC1)C(C)(C)C)C(=O)C(=O)NC1CC1 [Telaprevir, telaprevir, reference compound]	interval 1
COC(=O)c1c(C)cc(O)cc1O [Compound 8, methyl orsellinate]	interval 3
C#Cc1cccc(Nc2ncnc3cc(OCCOC)c(OCCOC)cc23)c1 [Erlotinib, erlotinib, reference compound]	interval 1
COC(=O)c1c(C)cc(OC(=O)c2c(C)cc(O)c(/C=C/C(C)=O)c2O)c(C)c1O [Compound 2]	interval 3
COC(=O)c1c(C)cc(O)c(C)c1O [Compound 7]	interval 3
COC(=O)c1c(C)cc(OC(=O)c2c(C)cc(O)c(CO)c2O)c(C)c1O [Compound 5, Methyl-8-hydroxy-4-O-demethylbarbatate]	interval 2
COC(=O)c1c(C)cc(OC(=O)c2c(C)cc(O)cc2O)c(C)c1O [Compound 3, methyl-3’-methyllecanorate]	interval 2
COC(=O)c1c(C)cc(O)c(C=O)c1O [Compound 10, methyl haematommate]	interval 3
COC(=O)c1c(C)cc(OC(=O)c2c(C)cc(O)c(C)c2O)c(C)c1O [Compound 6, Methyl-4-O-demethylbarbatate]	interval 2
COC(=O)c1c(C)cc(OC(=O)c2c(C)cc(O)c(C=O)c2O)c(C)c1O [Compound 1, atranorin]	interval 2

----------
assay: in vitro; format: cell-based, human; conditions: human; 100 μM; percentage of vehicle (0.1% DMSO) control; mean ± SEM, n = 3
Here the recorded viability at 48 h, 100 µM is given for each entry.

Compound	viability at 48 h, 100 µM, %
COC(=O)c1c(C)cc(OC(=O)c2c(C)cc(O)c(C=O)c2O)c(C)c1O [Compound 1, atranorin]	91.8
COC(=O)c1c(C)cc(OC(=O)c2c(C)cc(O)c(/C=C/C(C)=O)c2O)c(C)c1O [Compound 2]	107
COC(=O)c1c(C)cc(O)c(C)c1O [Compound 7]	97.3
COC(=O)c1c(C)cc(O)cc1O [Compound 8, methyl orsellinate]	93.4
COC(=O)c1c(C)cc(OC(=O)c2c(C)cc(O)c(C)c2O)c(C)c1O [Compound 6, Methyl-4-O-demethylbarbatate]	81.6
COC(=O)c1c(C)cc(OC(=O)c2c(C)cc(O)c(C(=O)O)c2O)c(C)c1O [Compound 4, cladonioidesin]	90.4
COC(=O)c1c(C)cc(O)c(C=O)c1O [Compound 10, methyl haematommate]	72.2
COC(=O)c1c(C)cc(OC(=O)c2c(C)cc(O)c(CO)c2O)c(C)c1O [Compound 5, Methyl-8-hydroxy-4-O-demethylbarbatate]	55.8
COC(=O)c1c(C)cc(OC(=O)c2c(C)cc(O)cc2O)c(C)c1O [Compound 3, methyl-3’-methyllecanorate]	63.1
Cc1cc(O)c(C=O)c(O)c1 [Compound 9, atranol]	78.7

----------
# CC50 at 48 h per entry
test: in vitro; format: cell-based, human; conditions: human, half-maximal cytotoxicity concentration, Huh-7.5.1 cells, 48 h; mean ± SEM; maximum dose tested 100 μM

Compound	CC50 at 48 h
COC(=O)c1c(C)cc(OC(=O)c2c(C)cc(O)c(/C=C/C(C)=O)c2O)c(C)c1O	> 100 µM
COC(=O)c1c(C)cc(OC(=O)c2c(C)cc(O)c(C(=O)O)c2O)c(C)c1O	> 100 µM
COC(=O)c1c(C)cc(OC(=O)c2c(C)cc(O)cc2O)c(C)c1O [Compound 3, methyl-3’-methyllecanorate]	82 µM
COC(=O)c1c(C)cc(OC(=O)c2c(C)cc(O)c(CO)c2O)c(C)c1O [Compound 5, Methyl-8-hydroxy-4-O-demethylbarbatate]	106 µM
COC(=O)c1c(C)cc(O)c(C=O)c1O [Compound 10, methyl haematommate]	> 100 µM
COC(=O)c1c(C)cc(O)cc1O [Compound 8, methyl orsellinate]	> 100 µM
Cc1cc(O)c(C=O)c(O)c1	> 100 µM
COC(=O)c1c(C)cc(O)c(C)c1O	> 100 µM
COC(=O)c1c(C)cc(OC(=O)c2c(C)cc(O)c(C=O)c2O)c(C)c1O	> 100 µM
COC(=O)c1c(C)cc(OC(=O)c2c(C)cc(O)c(C)c2O)c(C)c1O [Compound 6, Methyl-4-O-demethylbarbatate]	> 100 µM

Every entry's value here was drawn from paper PMC4368788.
